test system: K. pneumoniae ESBL−; experiment: In vitro MIC, 2010 surveillance isolates; assay type: cell-based, Klebsiella pneumoniae; conditions: N America; CLSI breakpoints
Overview of recorded % R (resistance) for various molecules
recorded.metric: % R (resistance) (%)

molecule	measurement.target	recorded.metric	observed.measurement
C[C@@H](O)[C@H]1C(=O)N2C(C(=O)O)=C(SCCN=CN)C[C@H]12	K. pneumoniae ESBL−	% R (resistance)	0
C[C@H]1c2cccc(O)c2C(=O)C2=C(O)[C@]3(O)C(=O)C(C(N)=O)=C(O)[C@@H](N(C)C)[C@@H]3[C@@H](O)[C@@H]21	K. pneumoniae ESBL−	% R (resistance)	13.7
CO/N=C(\C(=O)N[C@@H]1C(=O)N2C(C(=O)O)=C(CSc3nc(=O)c(=O)[nH]n3C)CS[C@H]12)c1csc(N)n1	K. pneumoniae ESBL−	% R (resistance)	0
CN(C)c1cc(NC(=O)CNC(C)(C)C)c(O)c2c1C[C@H]1C[C@H]3[C@H](N(C)C)C(O)=C(C(N)=O)C(=O)[C@@]3(O)C(O)=C1C2=O	K. pneumoniae ESBL−	% R (resistance)	0
C[C@H]1COc2c(N3CCN(C)CC3)c(F)cc3c(=O)c(C(=O)O)cn1c23	K. pneumoniae ESBL−	% R (resistance)	1.9
NCC[C@H](O)C(=O)N[C@@H]1C[C@H](N)[C@@H](O[C@H]2O[C@H](CN)[C@@H](O)[C@H](O)[C@H]2O)[C@H](O)[C@H]1O[C@H]1O[C@H](CO)[C@@H](O)[C@H](N)[C@H]1O	K. pneumoniae ESBL−	% R (resistance)	0
CO/N=C(\C(=O)N[C@@H]1C(=O)N2C(C(=O)[O-])=C(C[N+]3(C)CCCC3)CS[C@H]12)c1csc(N)n1 [Cefepime]	K. pneumoniae ESBL−	% R (resistance)	0

----------
system: E. faecalis VS; assay: In vitro MIC, 2010 surveillance isolates; format: cell-based; settings: Europe; N=669
recorded.metric: MIC90 (µg/mL)

> print(dat)
                              smiles.string  measurement.target  recorded.metric  observed.measurement
1  CN(C)c1cc(NC(=O)CNC(C)(C)C)c(O)c2c1C[C@H]1C[C@H]3[C@H](N(C)C)C(O)=C(C(N)=O)C(=O)[C@@]3(O)C(O)=C1C2=O      E. faecalis VS            MIC90                  0.25

----------
test system: E. cloacae CeftazS; test: In vitro MIC, 2010 surveillance isolates; assay type: cell-based; conditions: N America; CLSI breakpoints
recorded.metric: % R (resistance) (%)

compound	recorded.metric	observed.measurement
NCC[C@H](O)C(=O)N[C@@H]1C[C@H](N)[C@@H](O[C@H]2O[C@H](CN)[C@@H](O)[C@H](O)[C@H]2O)[C@H](O)[C@H]1O[C@H]1O[C@H](CO)[C@@H](O)[C@H](N)[C@H]1O	% R (resistance)	0
CO/N=C(\C(=O)N[C@@H]1C(=O)N2C(C(=O)[O-])=C(C[N+]3(C)CCCC3)CS[C@H]12)c1csc(N)n1 [Cefepime]	% R (resistance)	0
C[C@H]1COc2c(N3CCN(C)CC3)c(F)cc3c(=O)c(C(=O)O)cn1c23	% R (resistance)	2.9
C[C@@H](O)[C@H]1C(=O)N2C(C(=O)O)=C(SCCN=CN)C[C@H]12	% R (resistance)	0
CN(C)c1cc(NC(=O)CNC(C)(C)C)c(O)c2c1C[C@H]1C[C@H]3[C@H](N(C)C)C(O)=C(C(N)=O)C(=O)[C@@]3(O)C(O)=C1C2=O	% R (resistance)	0
C[C@H]1c2cccc(O)c2C(=O)C2=C(O)[C@]3(O)C(=O)C(C(N)=O)=C(O)[C@@H](N(C)C)[C@@H]3[C@@H](O)[C@@H]21	% R (resistance)	6.2
CO/N=C(\C(=O)N[C@@H]1C(=O)N2C(C(=O)O)=C(CSc3nc(=O)c(=O)[nH]n3C)CS[C@H]12)c1csc(N)n1	% R (resistance)	3.3

----------
test: Phase 1b study in female adults with cystitis, plasma PK; assay type: in vivo, human; conditions: female, human, plasma, oral, 300 mg, plasma, Day 5, PO300; read-out: Ctrough, Mean
recorded.metric: concentration at 5 day (ng/mL)

> print(dat)
                                   compound  observed.measurement
1  CN(C)c1cc(CNCC(C)(C)C)c(O)c2c1C[C@H]1C[C@H]3[C@H](N(C)C)C(O)=C(C(N)=O)C(=O)[C@@]3(O)C(O)=C1C2=O [Compound 1]                   319

----------
experiment: Phase 1b study in female adults with cystitis, urine PK; type: in vivo, human; conditions: female, human, urine and plasma, intravenous, 200 mg, Day 1, IV_PO300; read-out: Renal CL, Median (converted)
recorded.metric: clearance

> print(dat)
                              smiles.string  observed.measurement
1  CN(C)c1cc(CNCC(C)(C)C)c(O)c2c1C[C@H]1C[C@H]3[C@H](N(C)C)C(O)=C(C(N)=O)C(=O)[C@@]3(O)C(O)=C1C2=O           27.2 mL/min

----------
assay: Phase 1b study in female adults with cystitis, plasma PK; assay type: in vivo, human; details: female, human, plasma, oral, 300 mg, plasma, Day 5, PO300; read-out: Cmax, Median
recorded.metric: Cmax (ng/mL)

> print(dat)
                              smiles.string  observed.measurement
1  CN(C)c1cc(CNCC(C)(C)C)c(O)c2c1C[C@H]1C[C@H]3[C@H](N(C)C)C(O)=C(C(N)=O)C(=O)[C@@]3(O)C(O)=C1C2=O                  1070

----------
system: K. oxytoca; assay: In vitro MIC, 2010 surveillance isolates; type: cell-based; conditions: Asia/Pac; N=17
recorded.metric: MIC90

compound	observed.measurement
CO/N=C(\C(=O)N[C@@H]1C(=O)N2C(C(=O)O)=C(CSc3nc(=O)c(=O)[nH]n3C)CS[C@H]12)c1csc(N)n1	> 8 µg/mL
NCC[C@H](O)C(=O)N[C@@H]1C[C@H](N)[C@@H](O[C@H]2O[C@H](CN)[C@@H](O)[C@H](O)[C@H]2O)[C@H](O)[C@H]1O[C@H]1O[C@H](CO)[C@@H](O)[C@H](N)[C@H]1O	2 µg/mL
C[C@@H](O)[C@H]1C(=O)N2C(C(=O)O)=C(SCCN=CN)C[C@H]12	0.5 µg/mL
C[C@H]1c2cccc(O)c2C(=O)C2=C(O)[C@]3(O)C(=O)C(C(N)=O)=C(O)[C@@H](N(C)C)[C@@H]3[C@@H](O)[C@@H]21	2 µg/mL
C[C@H]1COc2c(N3CCN(C)CC3)c(F)cc3c(=O)c(C(=O)O)cn1c23	≤ 0.5 µg/mL
CN(C)c1cc(NC(=O)CNC(C)(C)C)c(O)c2c1C[C@H]1C[C@H]3[C@H](N(C)C)C(O)=C(C(N)=O)C(=O)[C@@]3(O)C(O)=C1C2=O	0.5 µg/mL
CN(C)c1cc(CNCC(C)(C)C)c(O)c2c1C[C@H]1C[C@H]3[C@H](N(C)C)C(O)=C(C(N)=O)C(=O)[C@@]3(O)C(O)=C1C2=O	2 µg/mL
CO/N=C(\C(=O)N[C@@H]1C(=O)N2C(C(=O)[O-])=C(C[N+]3(C)CCCC3)CS[C@H]12)c1csc(N)n1 [Cefepime]	> 16 µg/mL

----------
Overview of recorded MIC90 for various molecules
system: MR CoNS; assay: In vitro MIC, 2010 surveillance isolates; format: cell-based, Coagulase-Negative Staphylococcus; conditions: Europe; N=510

smiles.string	endpoint.unit	value.relation.sign	MIC90
C[C@H]1c2cccc(O)c2C(=O)C2=C(O)[C@]3(O)C(=O)C(C(N)=O)=C(O)[C@@H](N(C)C)[C@@H]3[C@@H](O)[C@@H]21	µg/mL	=	2
C[C@H]1COc2c(N3CCN(C)CC3)c(F)cc3c(=O)c(C(=O)O)cn1c23	µg/mL	>	4
CO/N=C(\C(=O)N[C@@H]1C(=O)N2C(C(=O)O)=C(CSc3nc(=O)c(=O)[nH]n3C)CS[C@H]12)c1csc(N)n1	µg/mL	>	8
CN(C)c1cc(NC(=O)CNC(C)(C)C)c(O)c2c1C[C@H]1C[C@H]3[C@H](N(C)C)C(O)=C(C(N)=O)C(=O)[C@@]3(O)C(O)=C1C2=O	µg/mL	=	0.25
CN[C@H](CC(C)C)C(=O)N[C@H]1C(=O)N[C@@H](CC(N)=O)C(=O)N[C@H]2C(=O)N[C@H]3C(=O)N[C@H](C(=O)N[C@H](C(=O)O)c4cc(O)cc(O)c4-c4cc3ccc4O)[C@H](O)c3ccc(c(Cl)c3)Oc3cc2cc(c3O[C@@H]2O[C@H](CO)[C@@H](O)[C@H](O)[C@H]2O[C@H]2C[C@](C)(N)[C@H](O)[C@H](C)O2)Oc2ccc(cc2Cl)[C@H]1O	µg/mL	=	2
CN(C)c1cc(CNCC(C)(C)C)c(O)c2c1C[C@H]1C[C@H]3[C@H](N(C)C)C(O)=C(C(N)=O)C(=O)[C@@]3(O)C(O)=C1C2=O	µg/mL	=	1
